Biological target: SIK2 (human)
Experiment: KINOMEscan competition binding
Conditions: compound 10.0 µM
Let's look at some compounds and their measured kinase still bound, per cent of control.

[
  {
    "Structure as smiles": "CCN1CCN(C(=O)Cc2ccc(Nc3ncc(F)c(Nc4ccc(C(=O)Nc5ccccc5Cl)cc4)n3)cc2)CC1",
    "Quantity unit": "%",
    "kinase still bound, per cent of control": 20
  },
  {
    "Structure as smiles": "N#CCNC(=O)c1ccc(-c2ccnc(Nc3ccc(N4CCOCC4)cc3)n2)cc1",
    "Quantity unit": "%",
    "kinase still bound, per cent of control": 14
  },
  {
    "Structure as smiles": "NC(=O)Nc1cc(-c2cccc(F)c2)sc1C(=O)N[C@@H]1CCCNC1",
    "Quantity unit": "%",
    "kinase still bound, per cent of control": 2.6
  },
  {
    "Structure as smiles": "CCN(CC)CCCCNc1ncc2cc(-c3cc(OC)cc(OC)c3)c(NC(=O)NC(C)(C)C)nc2n1",
    "Quantity unit": "%",
    "kinase still bound, per cent of control": 100
  },
  {
    "Structure as smiles": "C=CC(=O)Nc1cc(-n2c(=O)ccc3cnc4ccc(-c5cn[nH]c5)cc4c32)ccc1C",
    "Quantity unit": "%",
    "kinase still bound, per cent of control": 62
  },
  {
    "Structure as smiles": "O=C(Nc1cccc(Nc2ncc(Br)c(NCCc3cnc[nH]3)n2)c1)N1CCCC1",
    "Quantity unit": "%",
    "kinase still bound, per cent of control": 8
  },
  {
    "Structure as smiles": "CNC(=O)c1cc(Oc2ccc(NC(=O)Nc3ccc(Cl)c(C(F)(F)F)c3)cc2)ccn1",
    "Quantity unit": "%",
    "kinase still bound, per cent of control": 97
  },
  {
    "Structure as smiles": "COc1cc(C(=O)N2CCC(N3CCN(C)CC3)CC2)ccc1Nc1ncc2c(n1)N(C)c1ccccc1C(=O)N2C",
    "Quantity unit": "%",
    "kinase still bound, per cent of control": 98
  },
  {
    "Structure as smiles": "COc1cc2ncnc(-n3nc(-c4ccccn4)nc3N)c2cc1OC",
    "Quantity unit": "%",
    "kinase still bound, per cent of control": 61
  },
  {
    "Structure as smiles": "COc1ccc(N(C(=O)Oc2c(C)cccc2C)c2ccnc(Nc3ccc(N4CCN(C)CC4)cc3)n2)c(OC)c1",
    "Quantity unit": "%",
    "kinase still bound, per cent of control": 7.6
  },
  {
    "Structure as smiles": "CN(C)C/C=C/C(=O)Nc1ccc(C(=O)Nc2cccc(Nc3nccc(-c4cccnc4)n3)c2)cc1",
    "Quantity unit": "%",
    "kinase still bound, per cent of control": 90
  },
  {
    "Structure as smiles": "C=CC(=O)Nc1ccc(CN(C(=O)Nc2c(Cl)c(OC)cc(OC)c2Cl)c2cc(Nc3ccc(N4CCN(C)CC4)cc3)ncn2)cc1",
    "Quantity unit": "%",
    "kinase still bound, per cent of control": 100
  },
  {
    "Structure as smiles": "CNC(=O)c1ccc(Nc2cc(Nc3ccccc3S(=O)(=O)C(C)C)c3cc[nH]c3n2)nc1",
    "Quantity unit": "%",
    "kinase still bound, per cent of control": 9.8
  },
  {
    "Structure as smiles": "O=c1cc(N2CCOCC2)oc2c(-c3cccc4c3sc3ccccc34)cccc12",
    "Quantity unit": "%",
    "kinase still bound, per cent of control": 75
  },
  {
    "Structure as smiles": "COc1cc2ncn(-c3cc(OCc4ccccc4C(F)(F)F)c(C(N)=O)s3)c2cc1OC",
    "Quantity unit": "%",
    "kinase still bound, per cent of control": 26
  },
  {
    "Structure as smiles": "COCC(=O)NC/C=C/c1ccc2ncnc(Nc3ccc(Oc4ccc(C)nc4)c(C)c3)c2c1",
    "Quantity unit": "%",
    "kinase still bound, per cent of control": 84
  },
  {
    "Structure as smiles": "CS(=O)(=O)N1CCN(Cc2cc3nc(-c4cccc5[nH]ncc45)nc(N4CCOCC4)c3s2)CC1",
    "Quantity unit": "%",
    "kinase still bound, per cent of control": 100
  },
  {
    "Structure as smiles": "O=C1NC(=O)/C(=C/c2ccc3nccc(-c4ccncc4)c3c2)S1",
    "Quantity unit": "%",
    "kinase still bound, per cent of control": 100
  },
  {
    "Structure as smiles": "CCN(CC)CCCCNc1ncc2c(n1)N(C)C(=O)N(c1c(Cl)c(OC)cc(OC)c1Cl)C2",
    "Quantity unit": "%",
    "kinase still bound, per cent of control": 100
  },
  {
    "Structure as smiles": "C[C@@H](Oc1cc(-c2cnn(C3CCNCC3)c2)cnc1N)c1c(Cl)ccc(F)c1Cl",
    "Quantity unit": "%",
    "kinase still bound, per cent of control": 12
  },
  {
    "Structure as smiles": "COc1cc(N2CCN(C)CC2)ccc1Nc1ncc2c(n1)N(C)c1ccccc1C(=O)N2C",
    "Quantity unit": "%",
    "kinase still bound, per cent of control": 100
  },
  {
    "Structure as smiles": "Cc1n[nH]c2ccc(-c3cncc(OC[C@@H](N)Cc4c[nH]c5ccccc45)c3)cc12",
    "Quantity unit": "%",
    "kinase still bound, per cent of control": 100
  }
]
